- Test system: PC-3 prostate
- Assay Text: NCI tumour cell line growth inhibition, 48 h
For each of the compounds below, state its TGI.

Problem: Item COC(=O)CCC(C)C1CCC2C3C(C[C@H](OC(C)=O)[C@]12C)[C@@]1(C)CCC2(C[C@H]1C[C@H]3OC(C)=O)OOC1(CC[C@]3(C)C4C[C@H](OC(C)=O)[C@]5(C)C(C(C)CCC(=O)OC)CCC5C4[C@H](OC(C)=O)C[C@@H]3C1)OO2 (stereo not given in full) has what recorded TGI?
Solution: > 100 µM

Problem: Now the compound Brc1ccc2c(c1)-c1nc3nc4c(cc3cc1CC2)CCc1ccc(Br)cc1-4
Solution: > 100 µM

Problem: Okay, and CC(=O)c1cc(C(=O)c2ccc3c(c2)Sc2ccccc2N3)c2cc(C)ccn12 ?
Solution: > 100 µM

Problem: Also need NCC1OC(OC2C(CO)OC(OC3C(O)C(N)CC(N)C3OC3OC(CO)C(O)CC3N)C2O)C(N)C(O)C1OC1OC(CO)C(O)C(O)C1O (stereo not given) , thanks.
Solution: > 50 µg/mL

Problem: Here is the next compound: Cc1nnc(N)nc1/C=C/c1c(O)ccc2ccccc12
Solution: 64.1 µM
